Biological target: STE20/SPS1-related proline-alanine-rich protein kinase (Rattus norvegicus)
Assay: Inhibition of TAMRA-labelled WNK4 binding to recombinant rat C-terminal GST-fused SPAK (452 to 553 residues) expressed in Escherichia coli BL21 measured for 15 secs by FCS assay
Entries annotated with measured IC50
Endpoint Name: IC50

>>> measured_value("CCOc1ccc2nc3cc(NC(=O)c4ccco4)ccc3c(N)c2c1")
"8.2 µM"
>>> measured_value("CCOc1ccc2nc3cc(NC(=O)c4ccccc4)ccc3c(N)c2c1")
"28.2 µM"
>>> measured_value("CCOc1ccc2nc3cc(NC(=O)c4ccc([N+](=O)[O-])cc4)ccc3c(N)c2c1")
"20.9 µM"
>>> measured_value("CCOc1ccc2nc3cc(NCc4ccc(OC)cc4OC)ccc3c(N)c2c1")
"21.1 µM"
>>> measured_value("CCOc1ccc2nc3cc(NC(=O)c4cccc([N+](=O)[O-])c4)ccc3c(N)c2c1")
"3.9 µM"
>>> measured_value("CCOc1ccc2nc3cc(NCc4ccco4)ccc3c(N)c2c1")
"15.4 µM"
>>> measured_value("N#Cc1ccc(NC(=O)Nc2ccc3c(N)c4cc(O)ccc4nc3c2)cc1")
"2.6 µM"
>>> measured_value("CCOc1ccc2nc3cc(NC(=O)c4ccc(C#N)cc4)ccc3c(N)c2c1")
"6.9 µM"
>>> measured_value("CCOc1ccc2nc3cc(NCc4cccs4)ccc3c(N)c2c1")
"53.5 µM"
>>> measured_value("CCOc1ccc2nc3cc(NC(=O)c4cc(C(F)(F)F)cc(C(F)(F)F)c4)ccc3c(N)c2c1")
"> 100 µM"
>>> measured_value("CCOc1ccc2nc3cc(NC(=O)c4ccc(F)cc4)ccc3c(N)c2c1")
"36.9 µM"
>>> measured_value("CCOc1ccc2nc3cc(NC(=O)c4ccc5ccccc5c4)ccc3c(N)c2c1")
"7.6 µM"
>>> measured_value("CCOc1ccc2nc3cc(NC(=O)c4cccc(C#N)c4)ccc3c(N)c2c1")
"2.6 µM"
>>> measured_value("CCOc1ccc2nc3cc(NCc4ccccc4)ccc3c(N)c2c1")
"35.6 µM"
>>> measured_value("CCOc1ccc2nc3cc(NC(=O)c4ccc(Cl)cc4)ccc3c(N)c2c1")
"49 µM"
>>> measured_value("COc1ccc2nc3cc(NC(=O)Nc4ccc(C#N)cc4)ccc3c(N)c2c1")
"4.8 µM"

---

System: HEK-293T
Experiment: Cytotoxicity against HEK293T cells after 40 hrs by CCK8 assay
Type: cell-based
Settings: Homo sapiens
Endpoint Name: IC50 (µM)

>>> measured_value("CCOc1ccc2nc3cc(NCc4ccco4)ccc3c(N)c2c1")
4.2
>>> measured_value("CCOc1ccc2nc3cc(NC(=O)c4ccc(C#N)cc4)ccc3c(N)c2c1")
25
